These data points were gathered from patent US10041937B2.

tested on: M1 macrophages and M2 macrophages differentiated from THP-1 cells; assay: Identification of macrophage subtypes differentiated from human cell line THP-1; assay type: cell-based; conditions: subtype strongly stained; THP-1-derived macrophages (Table 6)
endpoint: Selectivity

compound	endpoint	observed
O=C(O)CN1C(=O)/C(=C\c2cc(Br)c3c(c2)C2CCCC2N3c2ccc(Br)cc2)SC1=S (centres unmarked) [(12)]	Selectivity	M2
CCOC(=O)CCN1C(=O)/C(=C\c2ccc3c(c2)C2CCCC2N3CC)SC1=S (centres unmarked) [compound (1)]	Selectivity	M1
CCN1c2ccc(/C=C3/SC(=S)N(CCC(=O)O)C3=O)cc2C2CCCC21 (centres unmarked) [(15)]	Selectivity	M2
COC(=O)CCC(C(=O)OC)N1C(=O)/C(=C\c2ccc3c(c2)C2CCCC2N3c2ccc(OC)cc2)SC1=S (centres unmarked) [compound (4)]	Selectivity	M1

Now look at this one.
What value of Selectivity has been reported for the following compound? O=C(O)CCN1C(=O)/C(=C\c2ccc3c(c2)C2CCCC2N3Cc2ccccc2)SC1=S (centres unmarked) [compound (3)] M2

* * *

tested on: M1 macrophages and M2 macrophages differentiated from mouse bone marrow cells; test: Subtype identification by staining and flow cytometry of M1 and M2 macrophages differentiated from mouse bone marrow cells; type: cell-based, Balb/c mouse; conditions: mouse bone marrow-derived M1 macrophages; channel listed per compound; general formula (6) dyes (Table 7)
endpoint: Peak position of M1 macrophage
Give your answer as a number; write no unit.

Check out these entries, answers already filled in.
molecule	Peak position of M1 macrophage
CN1\C(=C/C=C/C=C/C2=[N+](C)c3ccc4ccccc4c3C2(C)C)C(C)(C)c2c1ccc1ccccc21 [(92)]	2.27
CCN1/C(=C\C=C\c2ccc3ccccc3[n+]2CC)C=Cc2ccccc21 [(104)]	95.26
CN1/C(=C/C2=C([O-])C(=C/C3=[N+](C)c4ccccc4C3(C)C)/C2=O)C(C)(C)c2ccccc21 [compound (113)]	9.05
CC1(C)C(/C=C/C=C/C=C/C=C2\N(CCCCCC(=O)[O-])c3ccccc3C2(C)C)=[N+](CCCCCC(=O)[O-])c2ccccc21.[Na+] [(91)]	2.96
CCN1/C(=C\C=C\C2=[N+](CC)c3ccccc3C23CCCCC3)C2(CCCCC2)c2ccccc21 [(99)]	191.14

Now look at this one.
What measured Peak position of M1 macrophage is associated with CCN1/C(=C\C=C\c2oc3ccccc3[n+]2CC)Oc2ccccc21 [(98)] on M1 macrophages and M2 macrophages differentiated from mouse bone marrow cells? 21.95

* * *

System: M1 macrophages and M2 macrophages differentiated from mouse bone marrow cells
Experiment: Subtype identification by staining and flow cytometry of M1 and M2 macrophages differentiated from mouse bone marrow cells
Format: cell-based, Balb/c mouse
Conditions: mouse bone marrow-derived M1 macrophages; channel listed per compound; general formula (6) dyes (Table 7)
Protocol: The culture of subtypes was performed according to a protocol described in NPL 7. […] The analysis was performed on a cell population showing a low signal for the aqua, so as to analyze a cell population from which dead cells were eliminated. […] A histogram was prepared by plotting fluorescence intensity obtained in the FITC channel on the abscissa and plotting the number of cells at each fluorescence intensity on the ordinate, which is shown in FIG. 2. […]
endpoint: Peak position of M1 macrophage
Give your answer as a number; write no unit.

Check out these entries, answers already filled in.
compound	Peak position of M1 macrophage
CC1(C)C(/C=C/C=C/C=C/C=C2\N(CCCCS(=O)(=O)[O-])c3ccccc3C2(C)C)=[N+](CCCCS(=O)(=O)[O-])c2ccccc21.[Na+] [(90)]	0.86
CCN1C(=C/C=C/c2n(CC)c3cc(Cl)c(Cl)cc3[n+]2CC)N(CC)c2cc(Cl)c(Cl)cc21	2.97

Now look at this one.
What value of Peak position of M1 macrophage has been reported for the following compound? CC1(C)C(/C=C/C=C/C=C/C=C2\N(CCCCS(=O)(=O)[O-])c3ccc4ccccc4c3C2(C)C)=[N+](CCCCS(=O)(=O)[O-])c2ccc3ccccc3c21.[Na+] 2.27

* * *

Below, each entry is listed alongside its reported Peak position of M1 macrophage.
Tested on: M1 macrophages and M2 macrophages differentiated from mouse bone marrow cells
Assay: Subtype identification by staining and flow cytometry of M1 and M2 macrophages differentiated from mouse bone marrow cells
Assay type: cell-based, Balb/c mouse
Details: fluorescence intensity at peak top of histogram; compound 1 μM, 37° C., 30 minutes
Experimental: The culture of subtypes was performed according to a protocol described in NPL 7. […] The analysis was performed on a cell population showing a low signal for the aqua, so as to analyze a cell population from which dead cells were eliminated. […] A histogram was prepared by plotting fluorescence intensity obtained in the FITC channel on the abscissa and plotting the number of cells at each fluorescence intensity on the ordinate, which is shown in FIG. 2. […]
Give your answer as a number; write no unit.

Check out these entries, answers already filled in.
compound	endpoint	observed
O=C(O)CCN1C(=O)/C(=C\c2ccc3c(c2)C2CCCC2N3c2ccc(C=C(c3ccccc3)c3ccccc3)cc2)SC1=S (centres unmarked)	Peak position of M1 macrophage	88.7
CCN1c2ccc(/C=C3/SC(=S)N(CCC(=O)O)C3=O)cc2CC1C (centres unmarked)	Peak position of M1 macrophage	4.90
CCN1c2ccc(/C=C/c3sc4ccccc4[n+]3CC(=O)O)cc2C2CCCC21 (centres unmarked)	Peak position of M1 macrophage	2.96

What measured Peak position of M1 macrophage is associated with CCN1C(=O)S/C(=c2/s/c(=C/c3ccc4c(c3)C3CCCC3N4Cc3ccccc3)c(=O)n2CC(=O)O)C1=O (centres unmarked) on M1 macrophages and M2 macrophages differentiated from mouse bone marrow cells? 7.14

Here is the next compound: CC1=NN(c2ccc(C(=O)O)cc2)C(=O)/C1=C\c1ccc2c(c1)C1CCCC1N2c1ccccc1 (centres unmarked) 1.15

Here is the next compound: COc1ccc(N2c3ccc(/C=C4/SC(=S)N(CC(=O)O)C4=O)cc3C3CCCC32)cc1 (centres unmarked) 27.4

Here is the next compound: CCOC(=O)Cn1c(=O)/c(=C\c2ccc3c(c2)C2CCCC2N3Cc2ccccc2)s/c1=C1/SC(=O)N(CC)C1=O (centres unmarked) 4.19

Here is the next compound: COc1ccc(N2c3ccc(/C=C/C4=[N+](CCC(=O)O)c5ccc6ccccc6c5C4(C)C)cc3C3CCCC32)cc1 (centres unmarked) 4.55

* * *

Below, each entry is listed alongside its reported Peak position of M1 macrophage.
test system: M1 macrophages and M2 macrophages differentiated from mouse bone marrow cells; test: Subtype identification by staining and flow cytometry of M1 and M2 macrophages differentiated from mouse bone marrow cells; format: cell-based, Balb/c mouse; conditions: fluorescence intensity at peak top of histogram; compound 1 μM, 37° C., 30 minutes
Give your answer as a number; write no unit.

compound	assayTarget	Peak position of M1 macrophage
O=C(O)CN1C(=O)/C(=C\c2ccc3c(c2)C2CCCC2N3Cc2ccccc2)SC1=S (stereo not shown)	M1 macrophages and M2 macrophages differentiated from mouse bone marrow cells	9.54

What value of Peak position of M1 macrophage has been reported for the following compound? COc1ccc(N2c3ccc(/C=C4\C(=O)NC(=O)C(C#N)=C4C)cc3C3CCCC32)cc1 (stereo not shown) [(2), reference compound] 0.86

Here is the next compound: COC(=O)CCC(C(=O)OC)N1C(=O)/C(=C\c2ccc3c(c2)C2CCCC2N3c2ccc(OC)cc2)SC1=S (stereo not shown) 158

Here is the next compound: O=C(O)CN1C(=O)/C(=C\C=C\c2ccc3c(c2)C2CCCC2N3c2ccccc2)SC1=S (stereo not shown) 225

Here is the next compound: CCOC(=O)CCN1C(=O)/C(=C\c2ccc3c(c2)C2CCCC2N3CC)SC1=S (stereo not shown) 85.8

Here is the next compound: O=C(O)CN1C(=O)/C(=C\c2ccc3c(c2)C2CCCC2N3c2ccc(C=C(c3ccccc3)c3ccccc3)cc2)SC1=S (stereo not shown) 65.1

* * *

Below, each entry is listed alongside its reported Peak position of M1 macrophage.
test system: M1 macrophages and M2 macrophages differentiated from mouse bone marrow cells; test: Subtype identification by staining and flow cytometry of M1 and M2 macrophages differentiated from mouse bone marrow cells; type: cell-based, Balb/c mouse; settings: fluorescence intensity at peak top of histogram; compound 1 μM, 37° C., 30 minutes
Give your answer as a number; write no unit.

compound	endpoint	observed
CC1(C)C(/C=C/c2ccc3c(c2)C2CCCC2N3c2ccc(C=C(c3ccccc3)c3ccccc3)cc2)=[N+](CCC(=O)O)c2ccccc21 (stereo not shown)	Peak position of M1 macrophage	188
O=C(O)CN1C(=O)/C(=C\c2ccc3c(c2)C2CCCC2N3c2ccccc2)SC1=S (stereo not shown)	Peak position of M1 macrophage	18.1
CCCCCCCCN1C(=O)/C(=c2\s/c(=C/c3ccc4c(c3)C3CCCC3N4c3ccc(C=C(c4ccccc4)c4ccccc4)cc3)c(=O)n2CC(=O)O)SC1=S (stereo not shown)	Peak position of M1 macrophage	3.74

What value of Peak position of M1 macrophage has been reported for the following compound? COc1ccc(N2c3ccc(/C=C4\C(=O)N(c5ccccc5)N=C4C(=O)O)cc3C3CCCC32)cc1 (stereo not shown) 5.00
